Tested on: HepG2
Assay: cytotoxicity call (relative viability < 0.9)
Details: 10 µM
Among all 39,000 compounds or so, about 3,300 (8.5%) were called active. What follows is part of a selection rich in actives, with near analogues and random picks from the rest.
Outcomes: 1 (yes) for active, 0 (no) for inactive

[[record]]
cpd_smiles = "C[C@@H]1CCCCO[C@@H](CN(C)C(=O)Nc2ccc(F)cc2)[C@@H](C)CN([C@H](C)CO)C(=O)c2cc(NS(=O)(=O)c3ccc(Cl)cc3)ccc2O1"
class = "0 (no)"

[[record]]
cpd_smiles = "C[C@H]1CCCCO[C@H](CN(C)C(=O)Nc2ccc(F)cc2)[C@@H](C)CN([C@@H](C)CO)C(=O)c2cc(NS(=O)(=O)c3ccc(Cl)cc3)ccc2O1"
class = "1 (yes)"

[[record]]
cpd_smiles = "C[C@@H]1CCCCO[C@H](CN(C)C(=O)Nc2ccc(F)cc2)[C@@H](C)CN([C@H](C)CO)C(=O)c2cc(NS(=O)(=O)c3ccc(Cl)cc3)ccc2O1"
class = "0 (no)"


Where these numbers come from: the antibiotic and cytotoxicity screens of Wong et al. (2023)
